- assay_comment: MTT cytotoxicity assay, cancer cell lines taken together (HeLa, K562, MOLT-4)
- Type: cell-based
- conditions_used: human, K562 and MOLT-4 cancer cells
experimental_readout: viability at 48 h, 1 µM

Reported viability at 48 h, 1 µM, compound CN[C@@H]1C[C@H]2O[C@@](C)([C@@H]1OC)n1c3ccccc3c3c4c(c5c6ccccc6n2c5c31)C(=O)NC4 [staurosporine, reference compound] : ____
44 to 49%

* * *

- Test system: HUVEC (normal endothelial) cells
- assay_comment: MTT cytotoxicity assay, HUVEC
- Format: cell-based
- conditions_used: Homo sapiens, 48 h incubation, average (SD) of three experiments, read-out: IC50 HUVEC
experimental_readout: pIC50
Answer as the number alone; pIC50 is minus log10 of concentration in mol/L.

Recorded pIC50, per entry:
CCCCN(CCCC)CC(O)CN1C(=O)C2C(C1=O)C1(C)C(=O)C2(C)C(c2ccccc2)=C1c1ccccc1 (stereo not drawn) [1e]	4.52
O=C1C2C(C(=O)N1CCO)C1(c3ccccc3)CC2(c2ccccc2)C(c2ccccc2)=C1c1ccccc1 (stereo not drawn) [compound 5]	6.15
CC(C)(C)NCC(O)CN1C(=O)C2C(C1=O)C1(c3ccccc3)CC2(c2ccccc2)C(c2ccccc2)=C1c1ccccc1 (stereo not drawn) [3c]	6.40
CCCCN(CCCC)CC(O)CN1C(=O)C2C(C1=O)C1(CC)C(=O)C2(CC)C(c2ccccc2)=C1c1ccccc1 (stereo not drawn) [2e]	5.92

// map CCNCC(O)CN1C(=O)C2C(C1=O)C1(CC)C(=O)C2(CC)C(c2ccccc2)=C1c1ccccc1 (stereo not drawn) [2b] to recorded pIC50 (system: HUVEC (normal endothelial) cells)
5.47

# get_value(readout= pIC50, system= HUVEC (normal endothelial) cells) for CCC12C(=O)C(CC)(C(c3ccccc3)=C1c1ccccc1)C1C(=O)N(CC(O)CN3CCOCC3)C(=O)C12 (stereo not drawn) [2g]
4.77
